TGT: human EDG-4 (Homo sapiens, UniProt O95136)
ASSAY PROCEDURE: SRE luciferase reporter in 293-EBNA cells, human EDG-4
Format: cell-based
TEST CONDITIONS: rank of efficacy among compounds tested
Hi there, I'd appreciate the recorded Rank (EMax) for every entry that follows.
One number for each entry.

[
  {
    "COMPOUND": "CCCCCCCCCCCCC/C=C/[C@@H](O)[C@@H](N)CO[C@@H]1O[C@H](CO)[C@H](O)[C@H](O)[C@H]1O",
    "DATA VALUE": 5
  },
  {
    "COMPOUND": "CCCCCCCCCCCCC/C=C/[C@@H](O)[C@@H](N)COP(=O)(O)O [S1P, sphingosine-1-phosphate]",
    "DATA VALUE": 2
  },
  {
    "COMPOUND": "CCCCCCCCCCCCCCC[C@@H](O)[C@@H](N)COP(=O)(O)O [Dihydro-S1P, dihydrosphingosine 1-phosphate]",
    "DATA VALUE": 3
  }
]

Here are 2 compounds. What values of Rank (EMax) were reported for them?
1. CCCCCCCCCCCCC/C=C/[C@@H](O)[C@@H](N)COP(=O)([O-])OCC[N+](C)(C)C
2. CCCCCCCCCCCCC/C=C/[C@@H](O)C(N)CO[C@@H]1O[C@H](CO)[C@@H](O)[C@H](O)[C@@H]1O (some centres unmarked)

RESULT:
[1, 4]

----------
Hi there, I'd appreciate the recorded EC50 for every entry that follows.
TGT: human EDG-4 (Homo sapiens, UniProt O95136)
ASSAY PROCEDURE: SRE luciferase reporter in 293-EBNA cells, human EDG-4
TEST CONDITIONS: 293-EBNA expressing human EDG-4; luciferase after 6 hr; pcDNA3 response subtracted

[
  {
    "COMPOUND": "CCCCCCCCCCCCC/C=C/[C@@H](O)C(N)CO[C@@H]1O[C@H](CO)[C@@H](O)[C@H](O)[C@@H]1O (stereo partly shown)",
    "TGT": "human EDG-4 (Homo sapiens, UniProt O95136)",
    "EC50": "> 10000 nM"
  }
]

Here are 3 compounds. What values of EC50 were reported for them?
1. CCCCCCCCCCCCC/C=C/[C@@H](O)[C@@H](N)CO[C@@H]1O[C@H](CO)[C@H](O)[C@H](O)[C@H]1O
2. CCCCCCCCCCCCCCC[C@@H](O)[C@@H](N)COP(=O)(O)O [Dihydro-S1P, dihydrosphingosine 1-phosphate]
3. CCCCCCCCCCCCC/C=C/[C@@H](O)[C@@H](N)COP(=O)([O-])OCC[N+](C)(C)C

RESULT:
1: > 10000 nM; 2: 530 nM; 3: 880 nM
